Tested on: Bacillus subtilis
Assay Notes: cleaved RNA product abundance (RNA/gDNA barcode ratio) relative to median wild-type variant (ratio to wild type); higher = more accumulation of the downstream cleavage product
Assay Setup: experiment (reporter, strain, medium): exp 8a: truncated aprE reporter, strain BJT201 with 2% xylose (RNase J1 expressed); cleavage site: glnRA (positions -5 to +31 mutated)
Measured Endpoint: cleaved RNA product abundance

ordered_residues=CGACATGTCCCGCTTCTTTCATTAATCCGTTAGCAACTGTTTTGCAATATAGATTTACCTTTTAAGAGGAGGAAT measured_number=0.599
ordered_residues=CGACATGTCCCGCTTCTTTCATTAATCCGTTAGCAACTATTTTGGTATATACATTTACCTTTTAAGAGGAGGAAT measured_number=0.273
ordered_residues=CGACATGTCCCGCTTCTTTCATTAATCCGTTAACAACTGTTTTGCTATATATATTTACCTTTTAAGAGGAGGAAT measured_number=0.2
ordered_residues=CGACATGTCCCGCTTCTTTCATTAATCCATTAGCAACTGTTTTGCTATATAAATTTACCTTTTAAGAGGAGGAAT measured_number=0.754
ordered_residues=CGACATGTCCCGCTTCTTTCATTAATACGTAAGCAACTGTTTTGCTATATACATTTACCTTTTAAGAGGAGGAAT measured_number=0.225
ordered_residues=CGACATGTCCCGCTTCTTTCATTAATCCGTTAGCAAGTGTTTTGCTATATACATTTACTTTTTAAGAGGAGGAAT measured_number=1.39
ordered_residues=CGACATGTCCCGCTTCTTTCATTAATCCGTTACCAAATGTTTTGCTATATACATTTACCTTTTAAGAGGAGGAAT measured_number=0.256
